# Assay remarks: clinical
# Condition context: human, in vivo
Task for the reader: assign each of the following molecules its reported CL renal.
I only need the number, in mL/min/kg, no unit after it.

input: Quick one: CL renal of CCCC(C)C1(CC)C(=O)NC(=S)NC1=O (centres undefined) ?
output: 0.08

input: Another molecule to check: CC1COc2c(N3CCN(C)CC3)c(F)cc3c(=O)c(C(=O)O)cn1c23 (centres undefined)
output: 2.7

input: Another molecule to check: CN1C2CCCC1CC(NC(=O)c1nn(C)c3ccccc13)C2 (centres undefined)
output: 1

input: Another molecule to check: CCN(CC)CCNC(=O)c1ccc(NS(C)(=O)=O)cc1 [SEMATILIDE]
output: 3.5

input: Another molecule to check: CC(C)(C)NCC(O)c1cc(O)cc(O)c1 (centres undefined)
output: 2.2

input: Another molecule to check: `N[C@@H](CC(=O)N1CCn2c(nnc2C(F)(F)F)C1)Cc1cc(F)c(F)cc1F`
output: 4.74

input: Another molecule to check: CN(C)CCCC1(c2ccc(F)cc2)OCc2cc(C#N)ccc21 (centres undefined)
output: 0.45

input: Another molecule to check: `Cc1ncc([N+](=O)[O-])n1CCO`
output: 0.19

input: Another molecule to check: `Cc1onc(-c2c(F)cccc2Cl)c1C(=O)N[C@@H]1C(=O)N2[C@@H]1SC(C)(C)[C@@H]2C(=O)O`
output: 1.56

* * *

# Assay remarks: Total body clearance in human
# Condition context: in vivo
Reported endpoint: log10 clearance (log10 of the value in mL/min/kg)
Units before log transform: mL/min/kg; reported quantity: clearance; transform: log10.

input: Quick one: log10 clearance of `Cc1cc(NC(=O)C2=C(O)c3ccccc3S(=O)(=O)N2C)no1` ?
output: -1.15

input: Another compound to check: `CN1C(C(=O)Nc2ccccn2)=C(O)c2sccc2S1(=O)=O`
output: -1.52

input: Another compound to check: CCCC1O[C@@H]2C[C@H]3[C@@H]4CCC5=CC(=O)C=C[C@]5(C)[C@H]4[C@@H](O)C[C@]3(C)[C@]2(C(=O)CO)O1 (stereo partly specified) [BUDESONIDE]
output: 1.30

input: Another compound to check: `C[C@@H]1O[C@@H]1P(=O)(O)O`
output: 0.30

input: Another compound to check: `Cc1ccnc2c1NC(=O)c1cccnc1N2C1CC1`
output: -0.52

input: Another compound to check: COCCCOc1ccnc(C[S+]([O-])c2nc3ccccc3[nH]2)c1C (stereo unspecified)
output: 0.60

input: Another compound to check: CCN(CC)CCNC(=O)c1ccc(NC(C)=O)cc1 [ACECAINIDE]
output: 0.60

input: Another compound to check: `CC[C@@H](CO)NCCN[C@@H](CC)CO`
output: 1.00

input: Another compound to check: `CCN(CC)C(=O)/C(C#N)=C/c1cc(O)c(O)c([N+](=O)[O-])c1`
output: 1.07

input: Another compound to check: `CNCCC=C1c2ccccc2CCc2ccccc21`
output: 1.00

input: Another compound to check: CC(=O)Nc1ccc(OCC(O)CNC(C)C)cc1 (stereo unspecified)
output: 0.30

* * *

# Assay remarks: clinical
# Condition context: human, in vivo
Task for the reader: assign each of the following molecules its reported CL renal.
I only need the number, in L/h/kg, no unit after it.

input: Quick one: CL renal of `CCCCCCCCCC(=O)N[C@@H](Cc1c[nH]c2ccccc12)C(=O)N[C@H](CC(N)=O)C(=O)N[C@@H](CC(=O)O)C(=O)N[C@@H]1C(=O)NCC(=O)N[C@@H](CCCN)C(=O)N[C@@H](CC(=O)O)C(=O)N[C@H](C)C(=O)N[C@@H](CC(=O)O)C(=O)NCC(=O)N[C@H](CO)C(=O)N[C@@H]([C@H](C)CC(=O)O)C(=O)N[C@@H](CC(=O)c2ccccc2N)C(=O)O[C@@H]1C` ?
output: 0.0054

input: Another molecule to check: COc1c(N2CCNC(C)C2)c(F)cc2c(=O)c(C(=O)O)cn(C3CC3)c12 (configuration not stated)
output: 0.138

input: Another molecule to check: `CC1(C)S[C@@H]2[C@H](NC(=O)[C@H](N)c3ccccc3)C(=O)N2[C@H]1C(=O)O`
output: 0.072

input: Another molecule to check: Cc1cccc(C)c1NC(=O)C(C)N (configuration not stated) [TOCAINIDE]
output: 0.048

input: Another molecule to check: CCN(CC)CCNC(=O)c1cc(Cl)c(N)cc1OC [METOCLOPRAMIDE]
output: 0.0684

input: Another molecule to check: COc1ccccc1OCCNCC(O)COc1cccc2[nH]c3ccccc3c12 (configuration not stated)
output: 0.006

input: Another molecule to check: `Cc1ccsc1C(=CCCN1CCC[C@@H](C(=O)O)C1)c1sccc1C`
output: 0.0018

input: Another molecule to check: N[C@@H]1CN(c2c(F)cc3c(=O)c(C(=O)O)cn([C@@H]4C[C@@H]4F)c3c2Cl)CC12CC2 [SITAFLOXACIN ANHYDROUS]
output: 0.168

input: Another molecule to check: CC(CCc1ccccc1)NCC(O)c1ccc(O)c(C(N)=O)c1 (configuration not stated)
output: 0.0552

input: Another molecule to check: `CN(C)c1cc(NC(=O)CNC(C)(C)C)c(O)c2c1C[C@H]1C[C@H]3[C@H](N(C)C)C(O)=C(C(N)=O)C(=O)[C@@]3(O)C(O)=C1C2=O`
output: 0.0342

input: Another molecule to check: `C[C@H]1C[C@H]2[C@@H]3CCC4=CC(=O)C=C[C@]4(C)[C@@]3(F)[C@@H](O)C[C@]2(C)[C@@]1(O)C(=O)CO`
output: 0.0084

input: Another molecule to check: `CCC1=C[C@@H]2CN(C1)Cc1c([nH]c3ccccc13)[C@@](C(=O)OC)(c1cc3c(cc1OC)N(C)[C@H]1[C@@](O)(C(=O)OC)[C@H](OC(C)=O)[C@]4(CC)C=CCN5CC[C@]31[C@@H]54)C2`
output: 0.132

input: Another molecule to check: CC(C)NCC(O)COc1ccc(CCOCC2CC2)cc1 (configuration not stated)
output: 0.042

input: Another molecule to check: CC(C)(C)NCC(O)COc1cccc2c1CC(O)C(O)C2 (configuration not stated)
output: 0.108

input: Another molecule to check: C[C@@H](O)[C@H]1C(=O)N2C(C(=O)[O-])=C(SC3Cn4cnc[n+]4C3)[C@H](C)[C@H]12 (some centres not stated)
output: 0.0738

input: Another molecule to check: CC1(C)S[C@@H]2[C@H](NC(=O)C(c3ccccc3)S(=O)(=O)O)C(=O)N2[C@H]1C(=O)O (some centres not stated)
output: 0.078

input: Another molecule to check: `C[C@H]1O[C@@H](n2cc(F)c(=O)[nH]c2=O)[C@H](O)[C@@H]1O`
output: 0.258

input: Another molecule to check: `Nc1ncnc2c1ncn2CCOCP(=O)(O)O`
output: 0.2

input: Another molecule to check: `CC[C@H](C)C(=O)O[C@H]1C[C@@H](C)C=C2C=C[C@H](C)[C@H](CC[C@@H]3C[C@@H](O)CC(=O)O3)[C@H]21`
output: 0.0432

input: Another molecule to check: CC(CN1c2ccccc2Sc2ccccc21)N(C)C (configuration not stated)
output: 0.0084

input: Another molecule to check: Cc1ccccc1N1C(=O)c2cc(S(N)(=O)=O)c(Cl)cc2NC1C (configuration not stated)
output: 0.0672

input: Another molecule to check: `CC1(C)S[C@@H]2[C@H](NC(=O)COc3ccccc3)C(=O)N2[C@H]1C(=O)O`
output: 0.104

input: Another molecule to check: `N=C(N)NC(=O)Cc1c(Cl)cccc1Cl`
output: 0.18

input: Another molecule to check: `S=P(N1CC1)(N1CC1)N1CC1`
output: 0.0018

input: Another molecule to check: `Nc1nc(Cl)nc2c1ncn2[C@H]1C[C@H](O)[C@@H](CO)O1`
output: 0.235

input: Another molecule to check: CC(C)=CCN1CC[C@]2(C)c3cc(O)ccc3C[C@H]1[C@H]2C [(+)-PENTAZOCINE]
output: 0.179

input: Another molecule to check: `CNC(=C[N+](=O)[O-])NCCSCc1csc(CN(C)C)n1`
output: 0.441

input: Another molecule to check: `CN1CCC[C@H]1c1cccnc1`
output: 0.18

input: Another molecule to check: `CCCCc1ncc(/C=C(\Cc2cccs2)C(=O)O)n1Cc1ccc(C(=O)O)cc1`
output: 0.042

input: Another molecule to check: O=C1Nc2ccc(Cl)cc2C(c2ccccc2Cl)=NC1O (configuration not stated)
output: 0.0006

input: Another molecule to check: `N[C@@H](Cc1ccc(O)c(O)c1)C(=O)O`
output: 0.0138

input: Another molecule to check: `CN(C)CCC=C1c2ccccc2CCc2ccccc21`
output: 0.0072
